assay.system: T1, Dnase1L3 WT (human, UniProt Q13609 21-305)
T1 sequence: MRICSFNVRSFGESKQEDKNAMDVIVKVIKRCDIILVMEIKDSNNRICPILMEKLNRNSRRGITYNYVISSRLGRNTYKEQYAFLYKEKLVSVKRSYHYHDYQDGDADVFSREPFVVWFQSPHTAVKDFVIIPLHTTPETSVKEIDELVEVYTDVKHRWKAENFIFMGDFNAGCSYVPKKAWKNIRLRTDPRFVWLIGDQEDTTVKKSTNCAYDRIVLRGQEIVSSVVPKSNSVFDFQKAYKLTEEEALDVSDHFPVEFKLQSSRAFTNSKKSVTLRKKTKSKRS
assay.summary: fluorescence polarization; 1 mM EDTA; FP: 50 mM Hepes pH 7.5 (Results say pH 7.4), 100 mM NaCl, 0.1 mM EDTA (1 mM for Dnase1L3/Dnase1), 1% glycerol, 1 mM TCEP, 0.1% PEG 6000, 20 nM dsDNA, 30 min at
condition.parameters: protein: recombinant; tags: His-MBP removed by TEV; blunt

binder	Kd [nM]
FITC 40-mer dsDNA (dsDNA) DNA 1: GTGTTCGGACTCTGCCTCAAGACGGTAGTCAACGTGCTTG DNA 2: CAAGCACGTTGACTACCGTCTTGAGGCAGAGTCCGAACAC	990

Reference source: paper PMC9381713
